# credit: patent US20240343733A1

Biological target: IRAK4 (Homo sapiens)
Construct: 293Tcells expressing HiBiT-tagged IRAK4 were then added into 384-well plates
Sequence (Q9NWZ3 whole entry): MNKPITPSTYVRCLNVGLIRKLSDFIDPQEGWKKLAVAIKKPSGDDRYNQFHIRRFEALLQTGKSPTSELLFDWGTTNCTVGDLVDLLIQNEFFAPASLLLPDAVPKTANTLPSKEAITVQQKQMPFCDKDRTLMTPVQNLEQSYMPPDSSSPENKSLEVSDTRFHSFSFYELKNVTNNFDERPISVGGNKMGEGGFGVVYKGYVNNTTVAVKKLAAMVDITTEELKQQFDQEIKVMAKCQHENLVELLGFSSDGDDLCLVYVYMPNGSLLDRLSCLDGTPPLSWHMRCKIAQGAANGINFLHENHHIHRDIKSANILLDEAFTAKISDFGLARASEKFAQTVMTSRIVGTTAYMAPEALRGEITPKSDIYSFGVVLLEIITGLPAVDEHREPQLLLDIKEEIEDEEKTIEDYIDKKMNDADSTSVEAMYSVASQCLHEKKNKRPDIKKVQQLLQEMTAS
Assay: IRAK4 Degradation Assay, HiBiT Method
Assay type: cell-based
Settings: 293T cells expressing HiBiT-tagged IRAK4, 6 hours
Each entry below carries its reported DC50.

{"columns": ["compound", "DC50"],
 "data": [
  ["CC(C)Oc1cc2nn([C@H]3CC[C@H](CN4CC[C@H](c5ccc(OC6CCC(=O)NC6=O)cc5)[C@@H](O)C4)CC3)cc2cc1C(=O)Nc1cccn([C@H]2C[C@H]2F)c1=O (stereo partly shown) [Example 187]", "< 0.01 µM"]
]}

Query block: Using the record for CC(C)Oc1cc2nc(C3CCN(CC(=O)N4CCC(c5ccc(NC6CCC(=O)NC6=O)cc5)CC4)CC3)cn2cc1C(=O)Nc1ccccn1 (stereo not shown) [Example 109] , state its measured DC50.
Result block: 0.01 to 0.1 µM

Query block: Please give the documented DC50 of CC(C)Oc1nc2nc(C3CCN(C(=O)CC4CC5(C4)CN(c4ccc(C6CCC(=O)NC6=O)cn4)C5)CC3)cn2cc1C(=O)Nc1cccn([C@H]2C[C@H]2F)c1=O (stereo partly shown) [Example 196]
Result block: < 0.01 µM

Query block: Give the value of DC50 reported for the following: CC(C)Oc1cc2nn(C3CCN(C(=O)CC4(O)CCN(c5cc(F)c(C6CCC(=O)NC6=O)cc5F)CC4)CC3)cc2cc1C(=O)Nc1cnn2cccnc12 (stereo not shown) [Example 57]
Result block: < 0.01 µM

Query block: State its DC50: CC(C)Oc1cc2nc(C3CCN(CC(=O)N4CCC(c5ccc(C6(F)CCC(=O)NC6=O)cc5)CC4)CC3)cn2cc1C(=O)Nc1cccc(C(F)F)n1 (stereo not shown) [Example 101]
Result block: 0.01 to 0.1 µM

Query block: Recall and state the measured DC50 for CC(C)Oc1cc2nc([C@H]3CC[C@H](CN4CCC(c5ccc(OC6CCC(=O)NC6=O)cc5)CC4)CC3)cn2cc1C(=O)Nc1cccc(C(F)F)n1 (stereo partly shown) [Example 31] .
Result block: 0.01 to 0.1 µM

Query block: Could you please provide reported DC50 for CC(C)Oc1cc2nn([C@H]3CC[C@H](CN4CC[C@@H](c5ncc(NC6CCC(=O)NC6=O)cc5F)[C@H](O)C4)CC3)cc2cc1C(=O)Nc1cccn([C@H]2C[C@H]2F)c1=O (stereo partly shown) [Example 136] ? Thanks!
Result block: < 0.01 µM

Query block: Quick one: give measured DC50 for CC(C)Oc1cc2nc(C3CCN(C(=O)CC4CCN(c5ccc6c([C@@H]7CCC(=O)NC7=O)nn(C)c6c5)CC4)CC3)cn2cc1C(=O)Nc1cccc(C(F)F)n1 [Example 92]
Result block: 0.01 to 0.1 µM

----------
Experiment: Pharmacokinetics in Male Cynomolgus Monkeys
Format: in vivo
Conditions: cynomolgus monkey, 5 mg/kg IV, plasma, mean
recorded-endpoint: clearance (mL/min/kg)
Entry rule: numbers only, all in mL/min/kg.

Query block: Give reported clearance value for CC(C)Oc1cc2nc([C@H]3CC[C@H](CN4CCC(c5ccc6c(c5)n(C)c(=O)n6C5CCC(=O)NC5=O)CC4)CC3)cn2cc1C(=O)Nc1cnn2cccnc12 (stereo partly shown)
Result block: 48.6

----------
Assay: Pharmacokinetics (PK) in Male Beagle Dogs
Assay type: in vivo
Settings: dog, 5 mg/kg IV, plasma, mean (Table 5), read-out: Vdss
recorded-endpoint: Vd (L/kg)
# output: bare number, implied unit L/kg

Query block: Tell us which Vd value is on record for CC(C)Oc1cc2nc([C@H]3CC[C@H](CN4CCC(c5ccc6c(c5)n(C)c(=O)n6C5CCC(=O)NC5=O)CC4)CC3)cn2cc1C(=O)Nc1cccn([C@H]2C[C@H]2F)c1=O (stereo partly shown)
Result block: 58

----------
Molecular target: IRAK4 (Homo sapiens)
Construct: 293Tcells expressing HiBiT-tagged IRAK4 were then added into 384-well plates
Assay: IRAK4 Degradation Assay, HiBiT Method
Type: cell-based
Details: 293T cells expressing HiBiT-tagged IRAK4, 6 hours
recorded-endpoint: DC50

Examples with answers:
{"columns": ["compound", "test-result"],
 "data": [
  ["CC(C)Oc1cc2nc(C3CCN(CC(=O)N4CCC(c5ccc(NC6CCC(=O)NC6=O)cc5)CC4)CC3)cn2cc1C(=O)Nc1cccc(C(F)F)n1 (stereo not drawn) [Example 105]", "10 to 100 nM"],
  ["CC(C)Oc1cc2nc([C@H]3CC[C@H](CN4CCC(c5ccc(C6(F)CCC(=O)NC6=O)cc5)CC4)CC3)cn2cc1C(=O)Nc1cccc(C(F)F)n1 (stereo partly drawn) [Example 45]", "100 to 500 nM"],
  ["CC(C)Oc1cc2nc(C3CCN(C(=O)CN4CCC(c5ccc(C6CCC(=O)NC6=O)cc5)CC4)CC3)cn2cc1C(=O)Nc1cnn2cccnc12 (stereo not drawn) [Example 87]", "< 10 nM"],
  ["CC(C)Oc1cc2nc([C@H]3CC[C@H](CN4CCC(c5ccc6c(c5)n(C)c(=O)n6C5CCC(=O)NC5=O)C(F)(F)C4)CC3)cn2cc1C(=O)Nc1cccc(C(F)F)n1 (stereo partly drawn) [Example 29]", "10 to 100 nM"],
  ["CC(C)Oc1cc2nn([C@H]3CC[C@H](CN4CCC(c5ccc6c(c5)n(C)c(=O)n6C5CCC(=O)NC5=O)CC4)CC3)cc2cc1C(=O)Nc1cccn([C@H]2C[C@H]2F)c1=O (stereo partly drawn) [Example 137]", "< 10 nM"]
]}

Now turn to the next compound.
Query block: Give a short answer stating reported DC50 for CC(C)Oc1cc2nc([C@H]3CC[C@H](CN4CCC(c5ccc(N6CCC(=O)NC6=O)cc5)CC4)CC3)cn2cc1C(=O)Nc1cccc(C(F)F)n1 [Example 39] .
Result block: 10 to 100 nM

----------
Assay: Pharmacokinetics in Male Cynomolgus Monkeys
Assay type: in vivo
Details: cynomolgus monkey, 5 mg/kg IV, plasma, mean (Table 11)
recorded-endpoint: half-life (h)
Please give a number only; it is taken to be in h.

Query block: Using the record for CC(C)Oc1cc2nc([C@H]3CC[C@H](CN4CCC(c5ccc6c(c5)n(C)c(=O)n6C5CCC(=O)NC5=O)CC4)CC3)cn2cc1C(=O)Nc1cccn([C@H]2C[C@H]2F)c1=O (stereo partly shown) , state its measured half-life.
Result block: 44.3

----------
Experiment: Pharmacokinetics (PK) in Male Beagle Dogs
Type: in vivo
Conditions: dog, 5 mg/kg IV, plasma, mean (Table 5)
recorded-endpoint: clearance (mL/min/kg)
Express the result in mL/min/kg but write the number alone.

Query block: Let me know recorded clearance for CC(C)Oc1cc2nc([C@H]3CC[C@H](CN4CCC(c5ccc6c(c5)n(C)c(=O)n6C5CCC(=O)NC5=O)CC4)CC3)cn2cc1C(=O)Nc1cccn([C@H]2C[C@H]2F)c1=O (stereo partly shown) [Compound 169] , thanks.
Result block: 35

----------
Assay: Pharmacokinetics (PK) in Male Beagle Dogs
Type: in vivo
Conditions: dog, 5 mg/kg IV, plasma, mean, read-out: Vdss
recorded-endpoint: Vd
# do not omit the unit; it follows the number

Query block: State its Vd: CC(C)Oc1cc2nc([C@H]3CC[C@H](CN4CCC(c5ccc6c(c5)n(C)c(=O)n6C5CCC(=O)NC5=O)CC4)CC3)cn2cc1C(=O)Nc1cnn2cccnc12 (stereo partly shown)
Result block: 58.5 L/kg

----------
Assay: Pharmacokinetics (PK) in Male Beagle Dogs
Type: in vivo
Conditions: dog, 5 mg/kg IV, plasma, mean
recorded-endpoint: C0
Kindly write the number and append the unit.

Query block: Input CC(C)Oc1cc2nc([C@H]3CC[C@H](CN4CCC(c5ccc6c(c5)n(C)c(=O)n6C5CCC(=O)NC5=O)CC4)CC3)cn2cc1C(=O)Nc1cnn2cccnc12 (stereo partly shown) , output reported C0.
Result block: 4180 ng/mL

----------
Catalogue of molecules with associated DC50
Biological target: IRAK4 (Homo sapiens)
Construct: 293Tcells expressing HiBiT-tagged IRAK4 were then added into 384-well plates
Experiment: IRAK4 Degradation Assay, HiBiT Method
Assay type: cell-based
Details: 293T cells expressing HiBiT-tagged IRAK4, 6 hours

As a guide, the following entries are already answered.
{"columns": ["molecule", "test-result"],
 "data": [
  ["CC(C)Oc1cc2nc([C@H]3CC[C@H](CN4CCN(c5ccc(C6CCC(=O)NC6=O)cn5)CC4)CC3)cn2cc1C(=O)Nc1cccn([C@H]2C[C@H]2F)c1=O (stereo partly drawn)", "10 to 100 nM"],
  ["CC(C)Oc1cc2nc(C3CCN(C(=O)CCCNc4ccc(C5CCC(=O)NC5=O)cn4)CC3)cn2cc1C(=O)Nc1cccn([C@H]2C[C@H]2F)c1=O (stereo partly drawn)", "10 to 100 nM"],
  ["CC(C)Oc1cc2nn([C@H]3CC[C@H](CN4CCN(c5ccc6c(N7CCC(=O)NC7=O)cnn6c5)CC4)CC3)cc2cc1C(=O)Nc1cccn([C@H]2C[C@H]2F)c1=O", "< 10 nM"],
  ["CC(C)Oc1cc2nc([C@H]3CC[C@H](CN4CCC(c5cccc6c5n(C)c(=O)n6C5CCC(=O)NC5=O)CC4)CC3)cn2cc1C(=O)Nc1cccc(C(F)(F)F)n1 (stereo partly drawn)", "100 to 500 nM"],
  ["CC(C)Oc1cc2nn([C@H]3CC[C@H](CNC4CCN(c5ncc(C6CCC(=O)NC6=O)cc5F)CC4)CC3)cc2cc1C(=O)Nc1cccn(C2CC2)c1=O (stereo partly drawn)", "< 10 nM"],
  ["CC(C)Oc1cc2nc(C3CCN(C(=O)CN4CCC(c5ccc(C6(F)CCC(=O)NC6=O)cc5)CC4)CC3)cn2cc1C(=O)Nc1cccc(C(F)F)n1 (stereo not drawn)", "10 to 100 nM"],
  ["CC(C)Oc1cc2nc([C@H]3CC[C@H](CN4CCC(c5ccc(NC6CCC(=O)NC6=O)cc5)CC4)CC3)cn2cc1C(=O)Nc1cccc(C(F)(F)F)n1 (stereo partly drawn)", "10 to 100 nM"],
  ["CC(C)Oc1cc2nn([C@H]3CC[C@H](CN4CC5(C4)CN(c4ncc(C6CCC(=O)NC6=O)cc4F)C5)CC3)cc2cc1C(=O)Nc1cccn([C@H]2C[C@H]2F)c1=O (stereo partly drawn)", "< 10 nM"]
]}

Kindly review the next molecule as well.
Query block: Identify measured DC50 associated with CC(C)Oc1cc2nc(C3CCC(CN4CC[C@H](c5cc6c(cc5F)c(N5CCC(=O)NC5=O)nn6C)[C@H](O)C4)CC3)cn2cc1C(=O)Nc1cccn([C@H]2C[C@H]2F)c1=O (stereo partly drawn)
Result block: < 10 nM
